Where do the numbers come from? From ChEMBL document CHEMBL3769388.

test: Clearance in mouse hepatocytes assessed per 10^6 cells; type: ADME, cell-based, Hepatocyte; conditions: read-out: CLH
quantity: hepatocyte CLint

Give the measured hepatocyte CLint of "COc1ncc(C)cc1CC[C@@](O)(CC(=O)O)C(=O)O" . < 6 µL/min/1e6 cells

====

Target: Na(+)/citrate cotransporter (Mus musculus, UniProt Q67BT3)
Sequence (Q67BT3 whole entry): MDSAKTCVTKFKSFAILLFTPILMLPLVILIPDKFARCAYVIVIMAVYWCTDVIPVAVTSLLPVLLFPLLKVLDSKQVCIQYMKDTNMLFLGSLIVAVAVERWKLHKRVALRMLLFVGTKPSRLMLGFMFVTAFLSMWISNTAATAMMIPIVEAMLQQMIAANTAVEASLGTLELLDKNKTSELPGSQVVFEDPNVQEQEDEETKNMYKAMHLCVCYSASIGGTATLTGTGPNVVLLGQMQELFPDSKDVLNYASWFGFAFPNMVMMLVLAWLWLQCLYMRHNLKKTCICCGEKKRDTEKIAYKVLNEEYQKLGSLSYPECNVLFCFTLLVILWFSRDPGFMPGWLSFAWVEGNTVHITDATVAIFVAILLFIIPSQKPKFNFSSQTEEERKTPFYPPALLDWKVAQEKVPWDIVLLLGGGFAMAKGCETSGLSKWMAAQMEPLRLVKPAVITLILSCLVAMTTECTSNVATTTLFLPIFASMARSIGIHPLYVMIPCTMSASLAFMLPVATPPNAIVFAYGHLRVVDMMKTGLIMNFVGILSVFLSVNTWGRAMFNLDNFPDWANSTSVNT
Test: Inhibition of NaCT in mouse hepatocytes assessed as [14C]-citrate uptake after 30 mins by scintillation counting method
quantity: pIC50
// pIC50 is dimensionless: -log10 of concentration (M)

Which pIC50 reading was recorded for the compound "COc1ncc(C)cc1CC[C@@](O)(CC(=O)O)C(=O)O" ? 6.68

====

biological target: Na(+)/citrate cotransporter (Homo sapiens); assay: Inhibition of NaCT in human hepatocytes assessed as [14C]-citrate uptake after 30 mins by scintillation counting method; format: cell-based, Hepatocyte
Listing of recorded IC50 by entry.
Return type: number; implicit unit nM.

COc1ncc(C)cc1CC[C@@](O)(CC(=O)O)C(=O)O = 740

Next compound, please.
Query (compound): "CCOc1ncccc1CC[C@@](O)(CC(=O)O)C(=O)O" ; field requested: IC50 330

====

biological target: Na(+)/citrate cotransporter (Homo sapiens, UniProt Q86YT5); test: Inhibition of NaCT (unknown origin) expressed in HEK293 cells assessed as inhibition of [14C]citrate uptake by microbeta plate reader analysis; assay type: cell-based; details: read-out: IC50
Sequence (Q86YT5 whole entry): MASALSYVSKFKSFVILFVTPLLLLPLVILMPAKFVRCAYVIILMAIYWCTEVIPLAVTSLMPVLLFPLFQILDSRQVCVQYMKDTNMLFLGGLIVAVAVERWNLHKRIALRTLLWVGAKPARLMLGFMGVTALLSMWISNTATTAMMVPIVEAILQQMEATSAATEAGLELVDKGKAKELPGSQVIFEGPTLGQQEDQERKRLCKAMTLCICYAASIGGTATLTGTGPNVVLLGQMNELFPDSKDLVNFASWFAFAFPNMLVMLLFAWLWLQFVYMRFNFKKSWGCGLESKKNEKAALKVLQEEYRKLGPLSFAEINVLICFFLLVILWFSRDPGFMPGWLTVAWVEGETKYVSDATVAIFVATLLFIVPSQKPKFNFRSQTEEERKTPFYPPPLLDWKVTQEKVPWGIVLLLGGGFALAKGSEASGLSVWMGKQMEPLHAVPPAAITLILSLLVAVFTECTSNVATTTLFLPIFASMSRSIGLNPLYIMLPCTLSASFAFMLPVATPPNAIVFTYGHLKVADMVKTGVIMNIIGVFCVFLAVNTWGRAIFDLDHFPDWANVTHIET
quantity: pIC50
Convention used: pIC50 is expressed as -log10 of the molar concentration.

Some solved cases for reference:
CCOc1ncccc1CCC(O)(CC(=O)O)C(=O)O (racemic) = 6.96
COc1ncccc1CCC(O)(CC(=O)O)C(=O)O (racemic) = 5.47
CCOc1ncc(C)cc1CCC(O)(CC(=O)O)C(=O)O (racemic) = 6.72

# lookup: pIC50 of COc1ccc(C)cc1CCC(O)(CC(=O)O)C(=O)O (racemic) 5.78

====

assay: Volume of distribution at steady state in Wistar Han rat at 1 mg/kg, iv by LC-MS/MS analysis; format: ADME, organism-based; conditions: in vivo, read-out: Vdss
Lab note: anything with Vd at or over 0.2 L/kg counts as YES; the rest go in NO.

CC(C)(C)c1ccc(CC[C@@](O)(CC(=O)O)C(=O)O)cc1 = YES
CCOc1ncccc1CC[C@@](O)(CC(=O)O)C(=O)O = NO
CC(C)(C)c1ccc(CCC(O)(CC(=O)O)C(=O)O)cc1 (racemic) = YES

Would you say "COc1ncc(C)cc1CC[C@@](O)(CC(=O)O)C(=O)O" shows Vd at minimum 0.2 L/kg? YES
